Kindly supply the reported LD50 values for the records listed here.
- System: Rattus norvegicus
- Details: acute; oral
Write the number in mg/kg without appending the unit.

stdin: Identify measured LD50 associated with CC12C=CC(C1)C1C(=O)OC(=O)C12 (stereo not given) [1,2,3,6-Tetrahydromethyl-3,6-methanophthalic anhydride]
stdout: 914

stdin: State, in one line, measured LD50 of CCOP(=S)(S)OCC
stdout: 4510

stdin: Hello, please tell me recorded LD50 for this one: CCCCCCC(=O)O
stdout: 8370

stdin: Read off the recorded LD50 for CCCCCCCCOC(=O)c1ccccc1C(=O)OCCCCCCCC [Di-n-octyl phthalate]
stdout: 53700

---

- System: Rattus norvegicus
- Details: repeat dose other; oral
Field: NOAEL. Provide a value for each of the molecules that follow.
Report the figure in mg/kg-day without appending any unit label.

stdin: Return NOAEL for the following molecule: O=[Se](=O)([O-])[O-] [Selenate]
stdout: 0.2

stdin: Using the record for C=CCl [Vinyl chloride] , state its measured NOAEL.
stdout: 0.17

stdin: Supply measured NOAEL of CCOC(C)=O [Ethyl acetate] in your reply.
stdout: 90

stdin: Provide measured NOAEL value, entry: CC(=O)[O-].CC(=O)[O-].[Pb+2] [Lead acetate]
stdout: 8

---

- System: Rattus norvegicus
- Details: acute; oral; gavage; Wistar
For each entry below, report its LD50 value.

stdin: Read off the recorded LD50 for CCCCCCCCCc1cc2ccccc2c(S(=O)(=O)[O-])c1CCCCCCCCC.CCCCCCCCCc1cc2ccccc2c(S(=O)(=O)[O-])c1CCCCCCCCC.[Ba+2] [Naphthalenesulfonic acid, dinonyl-, barium salt]
stdout: > 5000 mg/kg

stdin: Please report LD50 for the following compound: CCCCOC(=O)CC [Butyl propionate]
stdout: > 14000 mg/kg

stdin: Provide one value: measured LD50 of CC(C)COP(=S)([S-])OCC(C)C.CC(C)COP(=S)([S-])OCC(C)C.[Zn+2]
stdout: 3600 mg/kg

stdin: Give recorded LD50. C=CC(=C)CCC=C(C)C [Myrcene]
stdout: > 11400 mg/kg

stdin: In one line, give reported LD50 of the entry CCCCCCCCCCCCCCCCCC(=O)OCCO [2-Hydroxyethyl octadecanoate] .
stdout: > 5000 mg/kg

stdin: Give recorded LD50. CCCCCCCCCCCCCOC(=O)CCCCC(=O)OCCCCCCCCCCCCC [Bis(tridecyl) adipate]
stdout: > 15000 mg/kg

stdin: Find the measured LD50 of C=CC(C)CCC=C(C)C (configuration not stated) [Dihydromyrcene] and report it.
stdout: > 5000 mg/kg

---

- Tested on: Rattus norvegicus
- Details: acute; oral
Please go through the items and note down their LD50.

stdin: Return value of LD50 for input O=C1OC(=O)C2CCCCC12 (configuration not stated) [Hexahydrophthalic anhydride] , no commentary.
stdout: 3310 mg/kg

stdin: Quote LD50 reported for CC(C)CCCCCCc1ccc(O)cc1 please.
stdout: 1880 mg/kg

stdin: Return LD50 for the following compound: O=C(O)CCCCCCCCCCC(=O)O
stdout: > 3000 mg/kg

stdin: Retrieve LD50 measured for CCC(CC)C(C)COC(=O)c1ccccc1C(=O)OCC(C)C(CC)CC (configuration not stated) and print it.
stdout: > 22000 mg/kg

stdin: For CCCCCCCCCCCCOC(=O)CCSCCC(=O)OCCCCCCCCCCCC , write its LD50.
stdout: > 2500 mg/kg

stdin: Name the recorded LD50 of the compound listed here: CCCCCCCCCCCCCCCCCCOC(=O)CCSCCC(=O)OCCCCCCCCCCCCCCCCCC [Distearyl thiodipropionate]
stdout: > 5000 mg/kg

stdin: Give the reported LD50 for this compound. CC(C)(C)c1cc(CCC(=O)OCC(COC(=O)CCc2cc(C(C)(C)C)c(O)c(C(C)(C)C)c2)(COC(=O)CCc2cc(C(C)(C)C)c(O)c(C(C)(C)C)c2)COC(=O)CCc2cc(C(C)(C)C)c(O)c(C(C)(C)C)c2)cc(C(C)(C)C)c1O
stdout: > 5000 mg/kg
